tested on: BT-549 breast; experiment: NCI-60 one-dose screen, 48 h (100 = growth as untreated, 0 = no growth, -100 = all killed); conditions: 10 µM unless noted
Compounds without any hit were thinned out: in the full panel of roughly 83,000, 20% have a hit.
Mark class 1 for reported growth of 20% or greater; mark class 0 for anything smaller.

Record excerpt, results attached:
- Compound: "C#C[C@]1(O)CC[C@H]2[C@@H]3CC=C4c5sc(-c6ccc([N+](=O)[O-])cc6)nc5CC[C@]4(C)[C@H]3CC[C@@]21C"
  Discrete Label: "class 1"
- Compound: "CCOC(=O)/C=C/c1cccc2c1C(=O)NC(C)(c1cc3cc(Cl)ccc3oc1=O)N2 (stereo not given)"
  Discrete Label: "class 1"
- Compound: "NS(=O)(=O)c1ccc(-n2cc(-c3cccc(NC(=O)c4cc(C(F)(F)F)cc(C(F)(F)F)c4)c3)nn2)cc1"
  Discrete Label: "class 1"
- Compound: "O=C(/C=C/c1cccc(OCc2ccccc2)c1)c1nc2ccccc2[nH]1"
  Discrete Label: "class 0"

# next compound below
Determine whether measured growth meets or exceeds 20% for "Cc1cccc(Nc2nc3ccccc3nc2/C=C/c2ccc(F)cc2)c1"
class 1

====

The following molecules are shown together with reported growth values.
test system: SW-620 colon; test: NCI-60 one-dose screen, 48 h (100 = growth as untreated, 0 = no growth, -100 = all killed); conditions: 10 µM unless noted
Compounds without any hit were thinned out: in the full panel of roughly 83,000, 20% have a hit.
Enter your answer as a number in %; do not include the unit.

Query for SW-620 colon: what growth does the record show for COc1ccc(N2N=C(c3ccc4c(c3)OCO4)CC2c2cccc(NC(=O)CCCNS(=O)(=O)c3ccc(F)cc3)c2)cc1 (stereo not drawn) ?
86.2

# iterate: "CC(C)c1sc(NC(=O)c2cc(NC(=O)c3cc(NC(=O)c4cscn4)cn3C)cn2C)nc1C(=O)NCCCN(C)C"
20.5

# repeat for "CN1CCN(/C(=N\c2sc(-c3ccccc3)nc2-c2ccccc2)c2ccccc2)CC1"
79.5

Next: "CC(C)c1sc(NC(=O)c2cc(NC(=O)c3cc(NC(=O)c4nccn4C)cn3C)cn2C)nc1C(=O)NCCCN(C)C"
66.6

Also, "Cn1cc(-c2nc(N)nnc2-c2c[nH]c3ccc(Br)cc23)c2cccnc21" please.
39.9

====

test system: A498 renal; assay: NCI-60 one-dose screen, 48 h (100 = growth as untreated, 0 = no growth, -100 = all killed); conditions: 10 µM unless noted
The panel holds about 83,000 compounds, 20% with a hit somewhere; the sample as a whole holds those more often.
Measured growth, listed per entry.
Write the number in % without appending the unit.

Below, 2 compounds whose answers are already recorded.
- Compound: "CC(=O)NNc1ccc2nnc(-c3ccccc3)n2n1"
  Reported Measurement: 108
- Compound: "CCOC(=O)C1=C(N)N(c2ccccc2)C2=C(C(=O)CC(C)(C)C2)C1c1ccc([N+](=O)[O-])cc1 (stereo unspecified)"
  Reported Measurement: 114

Request - read-out growth | tested on A498 renal | compound "COc1ccc(-c2nnc3ccc(N/N=C/c4ccc(O)cc4)nn23)cc1"
91.9

Record: "Cc1ccc(-c2nc(C#N)c(S(=O)(=O)N3CCN(S(=O)(=O)c4ccc(Cl)cc4)CC3)o2)cc1"
107

How about COc1ccc(C2=NN(C(C)=O)C(c3ccc(OCc4ccc(Cl)cc4)c(OC)c3)C2)cc1OC (stereo unspecified) ?
64.9

What do you get for "O=C1C(=Nc2ccc(F)c(Cl)c2)c2cccc3cccc1c23" ?
118

Item: "Cc1ccc(NCC(=O)Cn2cc(COc3ccc(C=Nc4cnc5ccccc5c4)cc3)nn2)cc1"
124

Field entry: "Cc1cc(=O)oc2cc(OCCCOc3ccc(/C=C/C(=O)Nc4ccccc4N)cc3)ccc12"
11.2

Repeat for the following compound: "CCCCCCCCc1ccc(C(=O)Nc2cccc(P(=O)(O)O)c2)cc1"
105

Quick one: "CNS(=O)(=O)c1ccc(Nc2ccc(C(F)(F)F)cc2)c(-c2cn(C)cn2)c1"
50.7

Please answer likewise for "COc1cc2nc(SCc3ccccc3)n(-c3ccc(Cl)cc3)c(=O)c2cc1OC"
7.03

Consider next the compound CCOC(=O)C1=C(N)N(c2ccccc2)C2=C(C(=O)CC(C)(C)C2)C1c1ccccc1Cl (stereo unspecified) in the same way.
99.4

One more compound: "C=Cn1cc(C(=O)O)c(=O)c2cc(F)c(N3CCN(c4nccc(-c5nccs5)n4)CC3)cc21"
-21.4

Follow-up item: "O=C(NNc1nc2cc(F)ccc2n2c(CN3CCCCC3)ccc12)c1cnccn1"
-87.9

Consider next the compound C=C1CCC2C3(C)COC(c4ccc(F)cc4)OC3CCC2(C)C1CC(O)C1=CCOC1=O (stereo unspecified) in the same way.
118

Try the compound "COc1ccc([C@H](C)Nc2nc(Cl)nc3ccccc23)cc1"
108
